Molecular target: Avi-KRAS G12D (2-169) GTP/RAF1 RBD-3xFLAG (51-131) (Homo sapiens, UniProt P01116, G12D)
Construct: Avi-KRAS G12D (2-169)
Assay: Raf1-KRAS G12D-GTP disruption HTRF assay (Biological Example 3)
Assay type: binding
Settings: KRAS G12D-GTP / RAF1 RBD HTRF

- compound: "CN(c1nc(OC[C@@]23CCCN2C[C@H](F)C3)nc2c(F)c(-c3ccc(F)c4sc(N)c(C#N)c34)c(C(F)(F)F)cc12)[C@@H]1CCCc2ccncc21 (atropisomer, axis not shown)"
  IC50: "100 to 1000 nM"
- compound: "CCN(c1nc(OC[C@@]23CCCN2C[C@H](F)C3)nc2c(F)c(-c3ccc(F)c4sc(N)c(C#N)c34)c(C(F)(F)F)cc12)[C@H]1CCN(c2nccs2)C1"
  IC50: "100 to 1000 nM"

====

Let's look at some molecules and their measured IC50.
Molecular target: Avi-KRAS G12R (1-169) GppNHp/RAF1 RBD-3xFLAG (52-151) (Homo sapiens, UniProt P01116, G12R)
Construct: Avi-KRAS G12R (1-169)
Sequence (P01116 1-169 isoform P01116-2 G12R): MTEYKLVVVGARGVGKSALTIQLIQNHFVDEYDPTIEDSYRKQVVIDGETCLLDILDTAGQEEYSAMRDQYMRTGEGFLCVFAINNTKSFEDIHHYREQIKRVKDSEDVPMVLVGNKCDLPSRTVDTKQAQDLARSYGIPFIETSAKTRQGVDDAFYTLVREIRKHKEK
Experiment: Raf1-KRAS G12R-GppNHP disruption HTRF assay (Biological Example 1)
Type: binding
Conditions: KRAS G12R-GppNHp/RAF1 RBD HTRF
test-readout: IC50

- molecule: "Cc1c(C(=O)N(C)C)nn2c1CN(c1nc(OC[C@@]34CCCN3C[C@H](F)C4)nc3c(F)c(-c4ccc(F)c5sc(N)c(C#N)c45)c(C(F)(F)F)cc13)CC2"
  reported-result: "< 100 nM"
- molecule: "CC(=O)N1C[C@@H]2CCCN(c3nc(OC[C@@]45CCCN4C[C@H](F)C5)nc4c(F)c(-c5ccc(F)c6sc(N)c(C#N)c56)c(C(F)(F)F)cc34)[C@@H]2C1"
  reported-result: "1000 to 10000 nM"
- molecule: "N#Cc1c(N)sc2c(F)ccc(-c3c(C(F)(F)F)cc4c(N5C[C@H]6C[C@@H]5CO6)nc(OC[C@@]56CCCN5C[C@H](F)C6)nc4c3F)c12 (single isomer, unassigned) [Compound 287]"
  reported-result: "100 to 1000 nM"
- molecule: "C[C@@H]1[C@H](N(C)c2nc(OC[C@@]34CCCN3C[C@H](F)C4)nc3c(F)c(-c4ccc(F)c5sc(N)c(C#N)c45)c(C(F)(F)F)cc23)CCN1C(=O)C(F)F"
  reported-result: "100 to 1000 nM"
- molecule: "N#Cc1c(N)sc2c(F)ccc(-c3c(C(F)(F)F)cc4c(N5CCn6nc(C7CC7)cc6C5)nc(OC[C@@]56CCCN5C[C@H](F)C6)nc4c3F)c12"
  reported-result: "> 10000 nM"

====

Let's look at some compounds and their measured IC50.
Biological target: Avi-KRAS G12D (1-169) GppNHp/RAF1 RBD-3xFLAG (52-151) (Homo sapiens, UniProt P01116, G12D)
Construct: Avi-KRAS G12D (1-169)
Sequence (P01116 1-169 isoform P01116-2 G12D): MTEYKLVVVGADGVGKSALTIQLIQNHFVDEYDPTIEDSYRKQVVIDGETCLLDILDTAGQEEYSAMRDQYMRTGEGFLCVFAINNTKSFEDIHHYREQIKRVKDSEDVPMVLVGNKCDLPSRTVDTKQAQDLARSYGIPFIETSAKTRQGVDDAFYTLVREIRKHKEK
Assay: Raf1-KRAS G12D-GppNHP disruption HTRF assay (Biological Example 1)
Format: binding
Conditions: KRAS G12D, GppNHp-loaded; Table 11
Protocol: A protein:protein interaction (PPI) Homogeneous Time Resolved Fluorescence (HTRF) assay was used to determine the effectiveness of compounds of the present disclosure in disrupting KRAS protein and effector RAF1 binding. The assay buffer included: 50 mM Tris pH 7.5, 100 mM NaCl, 5 mM MgCl2, 0.1% BSA, 0.01% Tween, and 10% DMSO. The bead buffer included: 50 mM Tris pH 7.5, and 0.01% Tween 20. […] Data was reported as percentage of activity, with DMSO as 100%. Data was plotted and analyzed using Prism 8.

- compound: "Nc1nc2c(-c3c(C(F)(F)F)cc4c(N[C@H]5C[C@@H](O)C5)nc(OCC56CCCN5CCC6)nc4c3F)ccc(F)c2s1 (atropisomer, axis not shown)"
  target-or-system: "Avi-KRAS G12D (1-169) GppNHp/RAF1 RBD-3xFLAG (52-151) (Homo sapiens, UniProt P01116, G12D)"
  IC50: "1000 to 10000 nM"
- compound: "CC(=O)N1CCN(c2nc(OC[C@@]34CCCN3C[C@H](F)C4)nc3c(F)c(-c4ccc(F)c5sc(N)c(C#N)c45)c(C(F)(F)F)cc23)C[C@H]1CC#N"
  target-or-system: "Avi-KRAS G12D (1-169) GppNHp/RAF1 RBD-3xFLAG (52-151) (Homo sapiens, UniProt P01116, G12D)"
  IC50: "1000 to 10000 nM"
- compound: "COC[C@@H]1[C@H](N(C)c2nc(OC[C@@]34CCCN3C[C@H](F)C4)nc3c(F)c(-c4ccc(F)c5sc(N)c(C#N)c45)c(C(F)(F)F)cc23)CCN1C(C)=O"
  target-or-system: "Avi-KRAS G12D (1-169) GppNHp/RAF1 RBD-3xFLAG (52-151) (Homo sapiens, UniProt P01116, G12D)"
  IC50: "100 to 1000 nM"

====

Let's look at some compounds and their measured pIC50.
Molecular target: Avi-KRAS G12D (1-169) GppNHp/RAF1 RBD-3xFLAG (52-151) (Homo sapiens, UniProt P01116, G12D)
Construct: Avi-KRAS G12D (1-169)
Test: Raf1-KRAS G12D-GppNHP disruption HTRF assay (Biological Example 1)
Format: binding
Conditions: KRAS G12D, GppNHp-loaded; class symbols
pIC50: −log10 of the molar value.
test-readout: pIC50

- compound: "CCN(c1nc(OC[C@@]23CCCN2C[C@H](F)C3)nc2c(F)c(-c3ccc(F)c4sc(N)c(C#N)c34)c(C(F)(F)F)cc12)[C@H]1CCN(C(=O)[C@@H](C)OC)C1 (atropisomer, axis not shown)"
  reported-result: "> 7.00"
- compound: "CN(c1nc(OC[C@@]23CCCN2C[C@H](F)C3)nc2c(F)c(-c3ccc(F)c4sc(N)c(C#N)c34)c(C(F)(F)F)cc12)[C@H]1CC(=O)N(C2CC2)C1 (atropisomer, axis not shown)"
  reported-result: "> 7.00"
- compound: "CCN(c1nc(OC[C@@]23CCCN2C[C@H](F)C3)nc2c(F)c(-c3ccc(F)c4sc(N)c(C#N)c34)c(C(F)(F)F)cc12)[C@H]1CCN(C(=O)[C@H](C)CO)C1 (atropisomer, axis not shown)"
  reported-result: "> 7.00"
- compound: "CCN(c1nc(OC[C@@]23CCCN2C[C@H](F)C3)nc2c(F)c(-c3ccc(F)c4sc(N)c(C#N)c34)c(C(F)(F)F)cc12)[C@H]1CCN(C(=O)c2ccnn2C)C1 (atropisomer, axis not shown)"
  reported-result: "> 7.00"
- compound: "CCN(c1nc(OC[C@@]23CCCN2C[C@H](F)C3)nc2c(F)c(-c3ccc(F)c4sc(N)c(C#N)c34)c(C(F)(F)F)cc12)[C@H]1CCN(C(=O)c2ccsn2)C1 (atropisomer, axis not shown)"
  reported-result: "> 7.00"
- compound: "CCN(c1nc(OC[C@@]23CCCN2C[C@H](F)C3)nc2c(F)c(-c3ccc(F)c4sc(N)c(C#N)c34)c(C(F)(F)F)cc12)[C@H]1C[C@@H](C)N(C(=O)[C@H]2CCO2)C1 (atropisomer, axis not shown)"
  reported-result: "> 7.00"
- compound: "CCN(c1nc(OCC23CCCN2CC(F)C3)nc2c(F)c(-c3ccc(F)c4sc(N)c(C#N)c34)c(C(F)(F)F)cc12)C1CC(C)N(C(=O)N2CC(F)C2)C1 (centres unmarked)"
  reported-result: "> 7.00"
- compound: "C[C@H]1Cn2nnc(C#N)c2CN1c1nc(OC[C@@]23CCCN2C[C@H](F)C3)nc2c(F)c(-c3ccc(F)c4sc(N)c(C#N)c34)c(C(F)(F)F)cc12 (atropisomer, axis not shown)"
  reported-result: "6.00 to 7.00"
- compound: "CCN(c1nc(OC[C@@]23CCCN2C[C@H](F)C3)nc2c(F)c(-c3ccc(F)c4sc(N)c(C#N)c34)c(C(F)(F)F)cc12)[C@@H]1CC(=O)N(CC(F)F)C1 (atropisomer, axis not shown)"
  reported-result: "> 7.00"
- compound: "Cc1nnn2c1CN(c1nc(OC[C@@]34CCCN3C[C@H](F)C4)nc3c(F)c(-c4ccc(F)c5sc(N)c(C#N)c45)c(C(F)(F)F)cc13)[C@@H](C)C2 (atropisomer, axis not shown)"
  reported-result: "6.00 to 7.00"
- compound: "[2H]C([2H])([2H])C([2H])(C(=O)N1CC[C@H](N(CC)c2nc(OC[C@@]34CCCN3C[C@H](F)C4)nc3c(F)c(-c4ccc(F)c5sc(N)c(C#N)c45)c(C(F)(F)F)cc23)C1)C([2H])([2H])[2H] (atropisomer, axis not shown)"
  reported-result: "> 7.00"
- compound: "CCN(c1nc(OC[C@@]23CCCN2C[C@H](F)C3)nc2c(F)c(-c3ccc(F)c4sc(N)c(C#N)c34)c(C(F)(F)F)cc12)[C@@H]1CCN(C(=O)[C@@H]2CC2(F)F)[C@@H]1C (atropisomer, axis not shown)"
  reported-result: "> 7.00"
- compound: "CCN(c1nc(OC[C@@]23CCCN2C[C@H](F)C3)nc2c(F)c(-c3ccc(F)c4sc(N)c(C#N)c34)c(C(F)(F)F)cc12)[C@@H]1CC(=O)N(C2CC2)C1 (atropisomer, axis not shown)"
  reported-result: "6.00 to 7.00"
- compound: "CCN(c1nc(OC[C@@]23CCCN2C[C@H](F)C3)nc2c(F)c(-c3ccc(F)c4sc(N)c(C#N)c34)c(C(F)(F)F)cc12)[C@H]1C[C@H](C)N(C(=O)c2ccon2)C1 (atropisomer, axis not shown)"
  reported-result: "> 7.00"
- compound: "CCN(c1nc(OC[C@@]23CCCN2C[C@H](F)C3)nc2c(F)c(-c3ccc(F)c4sc(N)c(C#N)c34)c(C(F)(F)F)cc12)[C@H]1C[C@@H](COC)N(C(C)=O)C1 (atropisomer, axis not shown)"
  reported-result: "6.00 to 7.00"
- compound: "CCN(c1nc(OC[C@@]23CCCN2C[C@H](F)C3)nc2c(F)c(-c3ccc(F)c4sc(N)c(C#N)c34)c(C(F)(F)F)cc12)[C@H]1CCN(C(=O)[C@@H]2CCCCO2)C1 (atropisomer, axis not shown)"
  reported-result: "> 7.00"
- compound: "CCN(c1nc(OC[C@@]23CCCN2C[C@H](F)C3)nc2c(F)c(-c3ccc(F)c4sc(N)c(C#N)c34)c(C(F)(F)F)cc12)[C@H]1CCN(C(=O)[C@@H]2C[C@@H]2F)C1 (atropisomer, axis not shown)"
  reported-result: "> 7.00"
